- Test system: DeltatarO mutant
- procedure text: S. aureus survival, RN4220 and DeltatarO strains – OD600, teichoic acid synthesis inhibitors, primary screen (AID 463173)
- cond: S. aureus RN4220 wild type/DeltatarO growth, OD600, 18 h, screened at 18.75 µg/mL (by protocol)
Hit rate of the full screen: of about 52,000 compounds, about 4,300 (8.3%) were called active. Rule as the data show it: active = survival mostly below about 52% (no sharp cut-off); inactive = mostly above about 56%. What follows is part of a selection rich in actives, with near analogues and random picks from the rest.
Classes to choose from: active, inactive

molecule	target desc	answer label
Cc1ccc(C)c(NC(=O)CCOc2ccccc2)c1	DeltatarO mutant	inactive
CCOC(=O)c1ccccc1NC(=O)CCOc1ccccc1	DeltatarO mutant	active
CC1=C(C(N)=O)C(c2cccc(C)c2)n2nc(-c3cccc(C)c3)nc2N1 (stereo unspecified)	DeltatarO mutant	inactive
CCNc1nc2c(c(=O)[nH]c(=O)n2C)n1CC(O)COc1ccc(Cl)cc1Cl (stereo unspecified)	DeltatarO mutant	inactive
COc1ccccc1NC(=O)N1CCN(Cc2nc3ccc(C)cc3o2)CC1	DeltatarO mutant	inactive
CCOC(=O)c1ccc2c(c1)N(Cc1cc(C)ccc1C)C(=O)c1ccccc1S2(=O)=O	DeltatarO mutant	inactive
COc1ccc(C)cc1-n1cnc2cc(C(=O)NC3CCCC3)ccc21	DeltatarO mutant	inactive
Cc1ccc(N(C)C(=O)c2sc3nc4n(c(=O)c3c2C)CCCC4)cc1C	DeltatarO mutant	inactive

Each molecule tested received a call. Report the one for `CCOC(=O)c1ccccc1NC(=O)Cc1c(C(=O)O)c(C)cn1C` . active

Each molecule tested received a call. Report the one for `CCc1ccc(NC(=O)Cc2c(C(=O)O)c(C)cn2C)cc1` . inactive

Each molecule tested received a call. Report the one for `COc1cccc(N2CCN(C(=O)Cn3c(-c4cccs4)cc4ccccc43)CC2)c1` . inactive

---

- Tested on: DeltatarO mutant
- procedure text: S. aureus survival, RN4220 and DeltatarO strains – OD600, teichoic acid synthesis inhibitors, primary screen (AID 463173)
- cond: S. aureus RN4220 wild type/DeltatarO growth, OD600, 18 h, screened at 18.75 µg/mL (by protocol)
Out of some 52,000 compounds screened, about 4,300 (8.3%) were called active. No stated cut-off is given here; in the data, active means survival mostly below about 52% (no sharp cut-off); inactive means mostly above about 56%. This is one part of a sample in which actives are shown more often than they occur.
Classes to choose from: active, inactive

compound	answer label
CC(C)c1nc2ccccc2c(=O)[nH]1	inactive
CN(C)c1cccc(C(=O)Nc2nc3ccc(S(=O)(=O)N4CCCC4)cc3s2)c1	inactive
CN(C)c1cccc(C(=O)Nc2nc3ccc(S(=O)(=O)NC(C)(C)C)cc3s2)c1	active
Cc1ccc(-c2nn3c(=O)cc(CN4CCN(C(=O)c5ccc(C(C)(C)C)cc5)CC4)nc3s2)cc1	inactive
COc1ccc2nc(N(Cc3cccnc3)C(=O)c3ccco3)sc2c1	inactive
CCC(O)c1nc2ccccc2n1Cc1cc(C)ccc1C (stereo unspecified)	inactive
CCCCN(C)CCNC(=O)c1cc(-c2ccc(Cl)s2)nc2ccccc12	inactive
Cc1ccc(C)c(Cn2c(C(C)NC(=O)c3ccccc3)nc3ccccc32)c1 (stereo unspecified)	inactive
Cc1cc2nc(N(Cc3cccnc3)C(=O)c3ccc(Cl)s3)sc2cc1C	active
COc1cc(C(=O)N(Cc2cccnc2)c2nc3cc(C)c(C)cc3s2)cc(OC)c1OC	inactive

Each compound tested received a call. Report the one for `COc1ccc2sc(N(Cc3cccnc3)C(=O)c3ccco3)nc2c1` . active
